Target sequence: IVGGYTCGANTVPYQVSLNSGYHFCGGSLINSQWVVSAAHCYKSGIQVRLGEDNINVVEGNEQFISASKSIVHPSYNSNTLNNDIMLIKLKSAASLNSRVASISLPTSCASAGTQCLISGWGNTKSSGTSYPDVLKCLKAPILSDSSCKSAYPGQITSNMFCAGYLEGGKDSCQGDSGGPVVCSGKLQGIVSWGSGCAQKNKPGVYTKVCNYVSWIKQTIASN

>  <Molecule>
CN(CCN(C)C(=O)c1ccc(OC(=O)c2ccc(NC(=N)N)cc2)cc1)CC(N)=O

>  <IC50 [nM]>
30

$$$$
>  <Molecule>
CN(C)C(=O)COC(=O)Cc1ccc(OC(=O)c2ccc(NC(=N)N)cc2)cc1 [Reference compound A, reference compound]

>  <IC50 [nM]>
50

$$$$
>  <Molecule>
N=C(N)Nc1ccc(C(=O)Oc2ccc(C(=O)N3CCN(CC(N)=O)CC3)cc2)cc1

>  <IC50 [nM]>
20

$$$$
>  <Molecule>
CCOC(=O)CN1CCN(C(=O)c2ccc(OC(=O)c3ccc(NC(=N)N)cc3)cc2)CC1

>  <IC50 [nM]>
20

$$$$
